Field: Transmittance*. Provide a value for each of the molecules that follow.
# Test: Transmittance at 860 nm of the product dissolved in chloroform
# Assay type: physicochemical
# Run conditions: measured at 860 nm in chloroform (Table 1)
Expressed in %, but write only the number.

(Q) Reported Transmittance* for O=C1c2c(Nc3ccccc3)ccc(Nc3ccccc3)c2C(=O)c2c(Nc3ccc(Cl)cc3)ccc(Nc3ccccc3)c21 : what is it?
(A) 98.8

(Q) Reported Transmittance* for Cc1ccc(Nc2ccc(Nc3ccc(C)cc3)c3c2C(=O)c2c(Nc4ccc(C)cc4)ccc(Nc4cccc(Br)c4)c2C3=O)cc1 : what is it?
(A) 98.2

(Q) Reported Transmittance* for COc1ccc(Nc2ccc(Nc3ccc(Cl)cc3)c3c2C(=O)c2c(Nc4ccc(OC)cc4)ccc(Nc4ccc(OC)cc4)c2C3=O)cc1 : what is it?
(A) 98.9

(Q) Reported Transmittance* for COc1ccc(Nc2ccc(Nc3ccc(OC)cc3)c3c2C(=O)c2c(Nc4ccc(OC)cc4)ccc(Nc4cccc(F)c4)c2C3=O)cc1 : what is it?
(A) 99.6

(Q) Reported Transmittance* for O=C1c2c(Nc3ccc(O)cc3)ccc(Nc3ccc(O)cc3)c2C(=O)c2c(Nc3ccc(Cl)cc3)ccc(Nc3ccc(Cl)cc3)c21 : what is it?
(A) 98.5

(Q) Reported Transmittance* for O=C1c2c(Nc3ccc(Cl)cc3)ccc(Nc3ccc(C4CCCCC4)cc3)c2C(=O)c2c(Nc3ccc(C4CCCCC4)cc3)ccc(Nc3ccc(C4CCCCC4)cc3)c21 : what is it?
(A) 99.2
